Test system: C3A HCC cells
Assay: Single-agent cell proliferation (AlamarBlue), C3A
Assay type: cell-based
Conditions: Homo sapiens, 72 h, drug alone, proliferation 3 days post drug treatment, read-out: EMD1214063 IC50

[
  {
    "Molecule": "CN1CCC(COc2cnc(-c3cccc(Cn4nc(-c5cccc(C#N)c5)ccc4=O)c3)nc2)CC1 [EMD1214063]",
    "IC50 [µM]": 7
  }
]

---

Test system: C3A HCC cells
Test: Single-agent cell proliferation (AlamarBlue), C3A
Format: cell-based
Conditions: Homo sapiens, 72 h, drug alone, proliferation 3 days post drug treatment, read-out: Tivantinib IC50
Observation type: IC50

[
  {
    "Compound": "O=C1NC(=O)[C@@H](c2cn3c4c(cccc24)CCC3)[C@@H]1c1c[nH]c2ccccc12 [Tivantinib]",
    "Observation type": "IC50",
    "Data value": "2.3 to 7.42 µM"
  }
]
